assay.text: Selectivity index, ratio of […] for toxicity in human A549 cells to MIC50 for antifungal activity against Aspergillus nidulans ATCC 38163
Format: cell-based
condition.set: read-out: Selectivity Index
Answer each item with its documented selectivity ratio.
One number for each entry.

[[record]]
compound = "CCCCCCC(O)(Cn1cncn1)c1ccc(F)cc1F (stereo unspecified)"
result = 73

[[record]]
compound = "CCCCCC(O)(Cn1cncn1)c1ccccc1Cl (stereo unspecified)"
result = 32

[[record]]
compound = "CCCCCCC(O)(Cn1cncn1)c1ccc(F)cc1 (stereo unspecified)"
result = 16

[[record]]
compound = "CCCCCCCCC(O)(Cn1cncn1)c1ccc(F)cc1F (stereo unspecified)"
result = 25

[[record]]
compound = "CCCCC(O)(Cn1cncn1)c1ccc(F)cc1F (stereo unspecified)"
result = 16

[[record]]
compound = "CCCCCC(O)(Cn1cncn1)c1ccc(F)cc1 (stereo unspecified)"
result = 8

[[record]]
compound = "CCCCCCC(O)(Cn1cncn1)c1ccccc1F (stereo unspecified)"
result = 65

[[record]]
compound = "CCCCCC(O)(Cn1cncn1)c1ccc(Cl)cc1 (stereo unspecified)"
result = 4


Please go through the list and note selectivity ratio for each compound.
1. CCCCCC(O)(Cn1cncn1)c1ccc(F)cc1F (stereo unspecified)
2. CCCC(O)(Cn1cncn1)c1ccc(Cl)cc1Cl (stereo unspecified)
3. CCCCCCC(O)(Cn1cncn1)c1ccc(Cl)cc1Cl (stereo unspecified)
4. CCCCCCC(O)(Cn1cncn1)c1ccccc1Cl (stereo unspecified)
5. CCCCCC(O)(Cn1cncn1)c1ccccc1F (stereo unspecified)

-- reply
1. 32
2. 16
3. 42
4. 522
5. 77

List selectivity ratio for every entry below, keeping the order given.
1. CCCCCCC(O)(Cn1cncn1)c1ccc(Cl)cc1 (stereo unspecified)
2. CCCCCC(O)(Cn1cncn1)c1ccc(Cl)cc1Cl (stereo unspecified)
3. CCCCC(O)(Cn1cncn1)c1ccc(Cl)cc1Cl (stereo unspecified)

-- reply
1: 10; 2: 69; 3: 130

====

assay.text: Selectivity index, ratio of EC50 for toxicity in human A549 cells to MIC50 for antifungal activity against ITC and FLC-susceptible Candida albicans ATCC MYA-2876
Format: cell-based
condition.set: read-out: Selectivity Index
Please respond with reported selectivity ratio for every item in the list.

The cases that follow already have their selectivity ratio on record.
[[record]]
compound = "CCCCCC(O)(Cn1cncn1)c1ccc(F)cc1F (configuration not stated)"
result = 4

[[record]]
compound = "CCCCCCC(O)(Cn1cncn1)c1ccccc1Cl (configuration not stated)"
result = 32

[[record]]
compound = "CCCCCCC(O)(Cn1cncn1)c1ccccc1F (configuration not stated)"
result = 32

[[record]]
compound = "CCCCCCC(O)(Cn1cncn1)c1ccc(Cl)cc1Cl (configuration not stated)"
result = 21


Hi there! I need selectivity ratio for each item below, if you can.
1. CCCCCC(O)(Cn1cncn1)c1ccc(Cl)cc1Cl (configuration not stated)
2. CCCCC(O)(Cn1cncn1)c1ccc(F)cc1F (configuration not stated)
3. CCCCCC(O)(Cn1cncn1)c1ccccc1F (configuration not stated)

-- reply
1: 34; 2: 4; 3: 38

====

assay.text: Selectivity index, ratio of EC50 for toxicity in human BEAS2B cells to MIC50 for antifungal activity against Candida albicans ATCC 64124
Format: cell-based
condition.set: BEAS-2B cells, read-out: Selectivity Index
Assign selectivity ratio to each entry below.
Answers are plain numbers.

[[record]]
compound = "CCCCCCC(O)(Cn1cncn1)c1ccc(Cl)cc1Cl (stereo unspecified)"
result = 14

[[record]]
compound = "CCCCCCC(O)(Cn1cncn1)c1ccccc1F (stereo unspecified)"
result = 1

[[record]]
compound = "CCCCCCC(O)(Cn1cncn1)c1ccc(F)cc1F (stereo unspecified)"
result = 4


Could I get selectivity ratio for every one of these entries?
1. CCCCCCC(O)(Cn1cncn1)c1ccccc1Cl (stereo unspecified)
2. CCCCCC(O)(Cn1cncn1)c1ccc(F)cc1 (stereo unspecified)
3. CCCC(O)(Cn1cncn1)c1ccc(Cl)cc1Cl (stereo unspecified)

-- reply
1: 1; 2: 1; 3: 8
